Assay: HUVEC growth inhibition – cell-based, human, primary screen (AID 575);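 further: 100% = median of untreated cell wells with 0.1% DMSO on each plate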
Settings: HUVEC proliferation, CellTiter-Glo luminescence, 72 h; at 10 µM
Active and inactive are the calls of the source.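 How the source made its calls: active means viability at or below 30% in both replicate assays; inconclusive means viability at or below 30% in just one of the two assays; inactive means the rest.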
Outcome codes: 1 = active, 0 = inactive

{"compound": "CC1CN(c2nc3ccccc3nc2C(C#N)C(=O)NCc2ccc3c(c2)OCO3)CC(C)O1 (centres undefined)", "class_name": 0}
{"compound": "CCN(c1ccccc1)S(=O)(=O)c1ccc(F)cc1C", "class_name": 0}
{"compound": "Nc1cc(N)nc(SCc2ccccc2)n1", "class_name": 0}
{"compound": "COC(=O)C1=C(C)NC(C)=C(C(=O)OC)C1C(=O)OC1CCCCC1=O (centres undefined)", "class_name": 0}
{"compound": "CC(C)Oc1cccc(-c2cc(C(=O)N3CCN(S(C)(=O)=O)CC3)c3ccccc3n2)c1", "class_name": 0}
{"compound": "Cc1cccc(NC(=O)CSc2nnc(-c3ccccc3C)o2)c1", "class_name": 0}
{"compound": "Cc1cccc(-n2ncc3c(N)ncnc32)c1", "class_name": 0}
{"compound": "O=C1c2ccccc2NC(c2cccc(F)c2)N1Cc1ccco1 (centres undefined)", "class_name": 0}
{"compound": "O=C(O)c1cccc(NC(=O)C2C3C=CC(C3)C2C(=O)OCC(F)(F)C(F)F)c1 (centres undefined)", "class_name": 0}
{"compound": "CC1=C(C(=O)Nc2ccccc2C)C(c2ccc(C)o2)N2C(=O)CSC2=N1 (centres undefined)", "class_name": 0}
{"compound": "COCCN(Cc1cc2cccc(C)c2[nH]c1=O)C(=O)c1ccccc1", "class_name": 0}
{"compound": "COc1cccc(NC(=O)N2CCC(N3CCCCC3)CC2)c1", "class_name": 0}
{"compound": "Cc1nc(CCNS(=O)(=O)c2cccs2)cs1", "class_name": 0}
{"compound": "CCOc1cc(C(=O)Nc2c3c(nn2C(C)(C)C)CS(=O)C3)cc(OCC)c1OCC (centres undefined)", "class_name": 0}
{"compound": "COc1ccccc1N(C)S(=O)(=O)c1ccc(C(=O)NC2=NCCS2)cc1", "class_name": 0}
{"compound": "CCn1cc(C(=O)NC2CCc3ccccc32)c(=O)c2ccc(C)nc21 (centres undefined)", "class_name": 0}
{"compound": "Cc1csc(NC(=O)C2CCCO2)n1 (centres undefined)", "class_name": 0}
{"compound": "CCCC(=O)Nc1nnc(CC(=O)N2CCCC2)s1", "class_name": 0}
{"compound": "CC(C)(C)OC(=O)N1CCN(c2ccc(NC(=O)c3cc4ccccc4oc3=O)cc2)CC1", "class_name": 0}
{"compound": "COC(=O)CSc1nnc(-c2ccc(OC)cc2OC)o1", "class_name": 0}
{"compound": "COc1ccc(S(=O)(=O)Nc2ccc3c(c2)OCO3)cc1Cl", "class_name": 1}
{"compound": "Cc1cc(C(=O)Nc2nnc(C(F)(F)F)s2)no1", "class_name": 0}
{"compound": "O=C(Cc1ccsc1-c1ccccc1)NO", "class_name": 0}
{"compound": "CN(CC(=O)Nc1sccc1C#N)C1CCCCC1", "class_name": 0}

* * *

Test: SK-BR-3 cell growth inhibitors, pilot screen, 24 h, human (AID 572);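 further: compound exposure lasted between 18 and 24 h rather than exactly 24 h; 100% = carrier-treated control wells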
Conditions: SK-BR-3 viability, CellTiter-Glo luminescence, at 10 µM, hits give low values

{"molecule": "Cc1nn(Cc2ccccc2)c(C)c1NC(=O)c1cc(-c2ccco2)on1", "viability [%]": 103}
{"molecule": "O=C(Nc1ncnc2sc3c(c12)CCC3)c1ccco1", "viability [%]": 81}
{"molecule": "COc1ccccc1CN1CC(C(=O)NCc2cccnc2)CC1=O (stereo unspecified)", "viability [%]": 134}
{"molecule": "CCOC(=O)C(NC(=O)CC)(Nc1ccc(S(=O)(=O)Nc2onc(C)c2C)cc1)C(F)(F)F (stereo unspecified)", "viability [%]": 116}
{"molecule": "CC(C)C12CN3CC(C(C)C)(CN(C1)C3c1ccc3c(c1)OCO3)C2=O (stereo unspecified)", "viability [%]": 117}
{"molecule": "COc1cc(C(=O)N(C)c2nnc(-c3cccnc3)s2)cc(OC)c1OC", "viability [%]": 123}
{"molecule": "CN(C)C(=O)Oc1ccc[n+](C)c1", "viability [%]": 92}
{"molecule": "O=C(CCCn1c(=S)[nH]c2cc3c(cc2c1=O)OCO3)N1CCN(c2ccccc2F)CC1", "viability [%]": 77}
{"molecule": "CCOC(=O)Cc1cc(=O)n2[nH]c(C)c(-c3ccc(OC)cc3)c2n1", "viability [%]": 103}
{"molecule": "Cc1ccc(-c2nnc3c4ccccc4c(C)nn23)cc1S(=O)(=O)N1CCN(C)CC1", "viability [%]": 85}
{"molecule": "O=C(NCC1CCCO1)c1ccc(C(=O)NCC2CCCO2)cc1 (stereo unspecified)", "viability [%]": 97}
